PROCEDURE_TEXT: Solubility study of tofacitinib citrate in various solvents (HPLC)
Assay type: physicochemical
EXPERIMENTAL_SETUP: aqueous buffer, thermodynamic from solid; pH 4.5, 50 mM Acetate Buffer
Where a name gives a salt, the structure may show the parent alone.
MEASURE_NAME: solubility

Respond only with solubility recorded for C[C@@H]1CCN(C(=O)CC#N)C[C@@H]1N(C)c1ncnc2[nH]ccc12 [Tofacitinib Citrate] 1810 µg/mL

====

PROCEDURE_TEXT: Solubility study of tofacitinib citrate in various solvents (HPLC)
Format: physicochemical
EXPERIMENTAL_SETUP: aqueous buffer, thermodynamic from solid; pH 9.0, 50 mM Phosphate Buffer
Procedure: A solubility study was conducted in the course of formulation development. The suspension was stirred overnight and filtered through 0.22 μm filter. The filtrate was diluted into suitable concentration.
Where a name gives a salt, the structure may show the parent alone.
MEASURE_NAME: solubility (µg/mL)
State the answer as a number, implicitly in µg/mL.

Respond only with solubility recorded for C[C@@H]1CCN(C(=O)CC#N)C[C@@H]1N(C)c1ncnc2[nH]ccc12 [Tofacitinib Citrate] 120
